target: Fibroblast growth factor 2 (Homo sapiens); test: basic fibroblast growth factor binding to printed compounds – biochemical, small-molecule microarray, 635/667 nm fluorescence, primary screen (AID 1133); conditions: FGF2, fluorescence 635/667, higher = more signal

MOLECULE	TESTED SYSTEM	composite z-score
O=C1O[C@H](c2ccccc2)[C@H](c2ccccc2)N2[C@H]1[C@@H](C(=O)NC[C@H](O)c1ccccc1)[C@]1(C(=O)Nc3ccc(C#CC4=CCCCC4)cc31)[C@H]2c1ccc(O)cc1	Fibroblast growth factor 2 (Homo sapiens)	1.59
CCOC(=O)C1=CC[C@@H](c2cccc(Cl)c2)N(S(=O)(=O)c2ccc(C)cc2)[C@H]1c1ccc(C#N)cc1	Fibroblast growth factor 2 (Homo sapiens)	0.56
CC1CC/C=C\[C@H]2OC34C=CCN(CCN5CCOCC5)C(=O)[C@H]3N(CCCCCO)C(=O)[C@@H]4C2C(=O)O1 (stereo partly drawn)	Fibroblast growth factor 2 (Homo sapiens)	-0.206

----------
Listed next: entries and their corresponding z-score.
assay: S6 kinase pathway phospho-S6 level changes – cell-based, A549, cytoblot, luminescence, serum-stimulated, primary screen (AID 1158); settings: 5 h, higher = more signal;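 further: serum-stimulated A549 lung adenocarcinoma cells; signal is phosphorylated S6 detected by cytoblot immunostaining with HRP secondary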

COMPOUND	z-score
O=C1C[C@@](C(=O)O)(c2ccc([N+](=O)[O-])cc2)[C@@H](c2ccc(CO)cc2I)N1CC12CC3CC(CC(C3)C1)C2	-0.429
O=C1C2C=CC(C(O)CCc3ccccc3)N(Nc3ccccc3)C2C(=O)N1c1ccccc1 (configuration not stated)	-1.06
O=C1C2C=CC(C(O)c3ccccn3)N(Nc3ccccc3F)C2C(=O)N1c1ccccc1 (configuration not stated)	-0.725
COC(=O)[C@@]1(Cc2ccc(F)cc2)[C@H]2c3cc(C(=O)N4CCCC4)n(CCc4ccc(OC)c(Br)c4)c3C[C@H]2CN1C(=O)c1ccccc1	0.0028
CC(C)NC(=O)[C@@H]1c2ccccc2C(=O)N(C2CCCCC2)[C@H]1c1ccc(CO)cc1	-0.061
COCCOC(=O)N1C(=O)[C@@]2(c3ccccc31)[C@H](C(=O)N1CCCCCCC1)[C@H]1C(=O)O[C@H](c3ccccc3)[C@H](c3ccccc3)N1[C@@H]2c1ccccc1OCCO	-0.408
COCCCNC(=O)[C@@]1(Sc2ccc(C)cc2)CC(=O)N(Cc2ccccc2)[C@@H]1c1ccc(CO)cc1	-0.0519

----------
target: Pro-neuregulin-1, membrane-bound isoform (Homo sapiens) (UniProt Q02297); assay: small molecules binding neuregulin-1 protein – biochemical, small-molecule microarray, fluorescence 635/667, psychiatric disease protein project, primary screen (AID 1075); details: NRG1 binding, 635 nm fluorescence, higher = more signal;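 further: score combines 667 nm spot fluorescence with signal to noise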
Sequence (Q02297 whole entry, looked up, canonical isoform): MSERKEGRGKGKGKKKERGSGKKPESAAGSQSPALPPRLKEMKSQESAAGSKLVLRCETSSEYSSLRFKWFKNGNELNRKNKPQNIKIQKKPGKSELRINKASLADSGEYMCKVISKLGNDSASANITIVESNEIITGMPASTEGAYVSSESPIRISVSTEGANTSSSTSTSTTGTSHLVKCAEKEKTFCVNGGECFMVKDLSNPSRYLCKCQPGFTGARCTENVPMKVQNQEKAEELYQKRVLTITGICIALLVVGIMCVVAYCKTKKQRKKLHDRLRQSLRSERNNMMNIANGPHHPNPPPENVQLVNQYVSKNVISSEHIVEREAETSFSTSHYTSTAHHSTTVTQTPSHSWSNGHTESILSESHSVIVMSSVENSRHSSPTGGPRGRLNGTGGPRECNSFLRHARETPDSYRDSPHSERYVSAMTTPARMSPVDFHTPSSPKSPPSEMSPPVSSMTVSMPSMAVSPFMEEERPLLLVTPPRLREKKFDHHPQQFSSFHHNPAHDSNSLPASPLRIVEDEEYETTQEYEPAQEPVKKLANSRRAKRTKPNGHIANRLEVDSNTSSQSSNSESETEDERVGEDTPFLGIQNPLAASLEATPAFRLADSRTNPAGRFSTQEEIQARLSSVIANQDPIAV
Listed next: entries and their corresponding composite z-score.

MOLECULE	composite z-score
COc1ccc([Si](C)(C)[C@@H]2[C@@H](CCO)O[C@]3(C(=O)N(Cc4cccc(N5CCCCC5=O)c4)c4ccccc43)[C@H]2C)cc1	1.06
C=CCOC(=O)[C@@H]1[C@H]2C(=O)O[C@H](c3ccccc3)[C@H](c3ccccc3)N2[C@H](c2ccc(OCCOC(=O)[C@H]3C[C@H]4C(=O)N[C@@H](Cc5ccccc5)C(=O)N4[C@H]3c3ccc(O)cc3)cc2)[C@@]12C(=O)Nc1ccc(I)cc12	0.846
CO[C@H]1O[C@H](CO)[C@@H](OC(=O)Nc2ccccc2-c2ccccc2)[C@H](OC(=O)Nc2ccccc2-c2ccccc2)[C@H]1OC(=O)Nc1ccccc1-c1ccccc1	0.885
C#C[C@H](O[Si](C#CCCCCCC)(C(C)C)C(C)C)c1ccccc1	-0.204
O=C1OCCC/C=C\[C@H]2OC34C=CCN(Cn5nnc6ccccc65)C(=O)[C@H]3N(CCCO)C(=O)[C@@H]4C12 (some centres not stated)	0.995
O=C(NCC(O)CO)[C@]1(CCS(=O)(=O)c2ccccc2)N=C(c2ccc(OCCCO)cc2)O[C@@H]1c1ccccc1 (some centres not stated)	2.3
C=C(/C(=C/C[C@@H](OC(C)=O)c1ccc(CO)o1)c1cnc2ccccc2c1)C(C)C	0.766
COc1ccc([Si](C)(C)[C@H]2[C@H](CC(=O)N3CCC[C@H]3CO)O[C@@]3(C(=O)N(c4ccccc4)c4ccccc43)[C@@H]2C)cc1	0.0644
O=C1O[C@H](c2ccccc2)[C@H](c2ccccc2)N2[C@H]1[C@@H](C(=O)Nc1nc3ccccc3s1)[C@]1(C(=O)Nc3ccc(C#CC4=CCCCC4)cc31)[C@H]2c1ccc(OCCO)cc1	0.734
C=CCOC(=O)[C@@H]1[C@H]2C(=O)O[C@H](c3ccccc3)[C@H](c3ccccc3)N2[C@H](c2ccc(OCCOC(=O)[C@H]3C[C@H]4C(=O)N[C@@H](CCCC[N+](C)(C)C)C(=O)N4[C@H]3c3cccc(OCCO)c3)cc2)[C@@]12C(=O)Nc1ccc(I)cc12	-0.306
COc1ccc(C(=O)Nc2cccc(CN3C(=O)[C@@]4(O[C@@H](CCn5cc([C@H](O)c6ccccc6)nn5)[C@H]([Si](C)(C)c5ccc(OC)cc5)[C@H]4C)c4ccccc43)c2)cc1	0.838
COc1cc(CO)cc(I)c1O[C@H]1C=C(C(=O)NCCO)C[C@@H](N(CCc2cccc(F)c2)C(=O)CCC2CCCC2)[C@@H]1O	1.27

Values were extracted from PubChem BioAssay.
